# Tested Target: Mu-type opioid receptor (Mus musculus)
# Method Notes: Antagonist activity at mouse mu opioid receptor expressed in CHO cell membrane assessed as reduction in DAMGO-induced […]-GTPgammaS binding by measuring maximal efficacy incubated for 1.5 hrs by liquid scintillation counting method relative to control
# Format: functional, cell membranes
Reported Property: Emax (%)
Number only, in %; omit the unit.

{"Compound Smiles": "O=C(N[C@H]1CC[C@@]2(O)[C@H]3Cc4ccc(O)c5c4[C@@]2(CCN3CC2CC2)[C@H]1O5)c1ncc[nH]1", "Reported Property": "Emax", "Measured Number": 7.85}

Lookup: Recall the recorded Emax for O=C(Cc1cnc[nH]1)N[C@@H]1CC[C@@]2(O)[C@H]3Cc4ccc(O)c5c4[C@@]2(CCN3CC2CC2)[C@H]1O5 with Mu-type opioid receptor (Mus musculus) and state it.
Found: 20.9

Lookup: // map O=C(CCc1cnc[nH]1)N[C@H]1CC[C@@]2(O)[C@H]3Cc4ccc(O)c5c4[C@@]2(CCN3CC2CC2)[C@H]1O5 to recorded Emax (system: Mu-type opioid receptor (Mus musculus))
Found: 25.4

Lookup: Provide value of Emax for this record tested with Mu-type opioid receptor (Mus musculus): O=C(N[C@@H]1CC[C@@]2(O)[C@H]3Cc4ccc(O)c5c4[C@@]2(CCN3CC2CC2)[C@H]1O5)c1ncc[nH]1
Found: 7.5

Lookup: Test system Mu-type opioid receptor (Mus musculus); read-out Emax; what value for O=C(N[C@H]1CC[C@@]2(O)[C@H]3Cc4ccc(O)c5c4[C@@]2(CCN3CC2CC2)[C@H]1O5)c1cn[nH]c1 ?
Found: 23.1

Lookup: Notebook entry, Mu-type opioid receptor (Mus musculus) assay: Emax of O=C(Cc1ncc[nH]1)N[C@@H]1CC[C@@]2(O)[C@H]3Cc4ccc(O)c5c4[C@@]2(CCN3CC2CC2)[C@H]1O5 = ?
Found: 23.5

Lookup: Reported Emax for Mu-type opioid receptor (Mus musculus), given O=C(Cc1cnc[nH]1)N[C@H]1CC[C@@]2(O)[C@H]3Cc4ccc(O)c5c4[C@@]2(CCN3CC2CC2)[C@H]1O5 ?
Found: 21

###

# Tested Target: Kappa-type opioid receptor (Mus musculus)
# Method Notes: Binding affinity to mouse kappa opioid receptor expressed in CHO cells in presence of U50488 incubated for 1.5 hrs by competitive radioligand binding assay
Reported Property: Ki (nM)
The reply should contain only the number, in nM.

Please review the entries below; each comes with its answer.
{"Compound Smiles": "O=C(N[C@@H]1CC[C@@]2(O)[C@H]3Cc4ccc(O)c5c4[C@@]2(CCN3CC2CC2)[C@H]1O5)c1cn[nH]c1", "Tested Target": "Kappa-type opioid receptor (Mus musculus)", "Reported Property": "Ki", "Measured Number": 2.51}
{"Compound Smiles": "O=C(CCc1cnc[nH]1)N[C@@H]1CC[C@@]2(O)[C@H]3Cc4ccc(O)c5c4[C@@]2(CCN3CC2CC2)[C@H]1O5", "Tested Target": "Kappa-type opioid receptor (Mus musculus)", "Reported Property": "Ki", "Measured Number": 1.8}
{"Compound Smiles": "O=C(CCc1cnc[nH]1)N[C@H]1CC[C@@]2(O)[C@H]3Cc4ccc(O)c5c4[C@@]2(CCN3CC2CC2)[C@H]1O5", "Tested Target": "Kappa-type opioid receptor (Mus musculus)", "Reported Property": "Ki", "Measured Number": 1.21}
{"Compound Smiles": "O=C(Cc1ncc[nH]1)N[C@H]1CC[C@@]2(O)[C@H]3Cc4ccc(O)c5c4[C@@]2(CCN3CC2CC2)[C@H]1O5", "Tested Target": "Kappa-type opioid receptor (Mus musculus)", "Reported Property": "Ki", "Measured Number": 3.45}
{"Compound Smiles": "O=C(N[C@@H]1CC[C@@]2(O)[C@H]3Cc4ccc(O)c5c4[C@@]2(CCN3CC2CC2)[C@H]1O5)c1ncc[nH]1", "Tested Target": "Kappa-type opioid receptor (Mus musculus)", "Reported Property": "Ki", "Measured Number": 4.8}

Lookup: // lookup Ki for O=C(N[C@@H]1CC[C@@]2(O)[C@H]3Cc4ccc(O)c5c4[C@@]2(CCN3CC2CC2)[C@H]1O5)c1cnc[nH]1
Found: 18.8

Lookup: # Ki lookup, item O=C(CCc1cc[nH]n1)N[C@H]1CC[C@@]2(O)[C@H]3Cc4ccc(O)c5c4[C@@]2(CCN3CC2CC2)[C@H]1O5
Found: 2.75

###

# Tested Target: Kappa-type opioid receptor (Mus musculus, UniProt P33534)
# Method Notes: Antagonist activity at kappa opioid receptor (unknown origin) expressed in CHO cell membrane assessed as reduction in U50,488H-induced […]-GTPgammaS binding incubated for 1.5 hrs by liquid scintillation counting method
Reported Property: pEC50
The meaning of pEC50 here: minus log10 of the concentration in molar units.

{"Compound Smiles": "O=C(Cc1cc[nH]n1)N[C@H]1CC[C@@]2(O)[C@H]3Cc4ccc(O)c5c4[C@@]2(CCN3CC2CC2)[C@H]1O5", "pEC50": 7.00}

Lookup: Find the recorded pEC50 belonging to O=C(N[C@@H]1CC[C@@]2(O)[C@H]3Cc4ccc(O)c5c4[C@@]2(CCN3CC2CC2)[C@H]1O5)c1cnc[nH]1 and report it.
Found: 7.93

###

// reported Ki for each item listed
# Tested Target: Delta-type opioid receptor (Homo sapiens, UniProt P41143)
# Method Notes: Binding affinity to human delta opioid receptor in presence of SNC80 incubated for 1.5 hrs by competitive radioligand binding assay
Numbers only here, please. The scale is nM.

# example entries with known answers
{"Compound Smiles": "O=C(Cc1cnc[nH]1)N[C@H]1CC[C@@]2(O)[C@H]3Cc4ccc(O)c5c4[C@@]2(CCN3CC2CC2)[C@H]1O5", "Ki, nM": 79.4}
{"Compound Smiles": "O=C(Cc1ncc[nH]1)N[C@H]1CC[C@@]2(O)[C@H]3Cc4ccc(O)c5c4[C@@]2(CCN3CC2CC2)[C@H]1O5", "Ki, nM": 17.7}
{"Compound Smiles": "O=C(N[C@H]1CC[C@@]2(O)[C@H]3Cc4ccc(O)c5c4[C@@]2(CCN3CC2CC2)[C@H]1O5)c1ncc[nH]1", "Ki, nM": 70.9}
{"Compound Smiles": "O=C(N[C@@H]1CC[C@@]2(O)[C@H]3Cc4ccc(O)c5c4[C@@]2(CCN3CC2CC2)[C@H]1O5)c1cn[nH]c1", "Ki, nM": 46.8}
{"Compound Smiles": "O=C(N[C@H]1CC[C@@]2(O)[C@H]3Cc4ccc(O)c5c4[C@@]2(CCN3CC2CC2)[C@H]1O5)c1cc[nH]n1", "Ki, nM": 21.2}
{"Compound Smiles": "O=C(CCc1cnc[nH]1)N[C@@H]1CC[C@@]2(O)[C@H]3Cc4ccc(O)c5c4[C@@]2(CCN3CC2CC2)[C@H]1O5", "Ki, nM": 35.5}

Could you now consider this next compound?
Lookup: Consider the compound shown here: O=C(N[C@@H]1CC[C@@]2(O)[C@H]3Cc4ccc(O)c5c4[C@@]2(CCN3CC2CC2)[C@H]1O5)c1cnc[nH]1 What is its recorded Ki?
Found: 209

###

Catalogue of pEC50 readings, one per entry.
# Tested Target: Mu-type opioid receptor (Mus musculus, UniProt P42866)
# Method Notes: Antagonist activity at mouse mu opioid receptor expressed in CHO cell membrane assessed as reduction in DAMGO-induced […]-GTPgammaS binding incubated for 1.5 hrs by liquid scintillation counting method
Here pEC50 is given on a logarithmic scale as minus log10 of the concentration in mol/L.

{"Compound Smiles": "O=C(Cc1cn[nH]c1)N[C@H]1CC[C@@]2(O)[C@H]3Cc4ccc(O)c5c4[C@@]2(CCN3CC2CC2)[C@H]1O5", "Measured Number": 8.09}

Lookup: Item under review: O=C(Cc1ncc[nH]1)N[C@H]1CC[C@@]2(O)[C@H]3Cc4ccc(O)c5c4[C@@]2(CCN3CC2CC2)[C@H]1O5 . Reported pEC50?
Found: 8.74

Lookup: Record request: pEC50 value, item O=C(Cc1cnc[nH]1)N[C@H]1CC[C@@]2(O)[C@H]3Cc4ccc(O)c5c4[C@@]2(CCN3CC2CC2)[C@H]1O5
Found: 8.44

Lookup: What value of pEC50 has been reported for the following compound? O=C(CCc1cnc[nH]1)N[C@H]1CC[C@@]2(O)[C@H]3Cc4ccc(O)c5c4[C@@]2(CCN3CC2CC2)[C@H]1O5
Found: 8.02

###

# Tested Target: Mu-type opioid receptor (Mus musculus, UniProt P42866)
# Method Notes: Binding affinity to mouse mu opioid receptor expressed in CHO cells in presence of naltrexone incubated for 1.5 hrs by competitive radioligand binding assay
Reported Property: Ki (nM)
Enter your answer as a number in nM; do not include the unit.

{"Compound Smiles": "O=C(CCc1cc[nH]n1)N[C@H]1CC[C@@]2(O)[C@H]3Cc4ccc(O)c5c4[C@@]2(CCN3CC2CC2)[C@H]1O5", "Measured Number": 0.5}
{"Compound Smiles": "O=C(N[C@H]1CC[C@@]2(O)[C@H]3Cc4ccc(O)c5c4[C@@]2(CCN3CC2CC2)[C@H]1O5)c1cn[nH]c1", "Measured Number": 0.59}
{"Compound Smiles": "O=C(CCc1cc[nH]n1)N[C@@H]1CC[C@@]2(O)[C@H]3Cc4ccc(O)c5c4[C@@]2(CCN3CC2CC2)[C@H]1O5", "Measured Number": 0.21}

Lookup: Could you share which Ki value was measured for O=C(CCc1cnc[nH]1)N[C@H]1CC[C@@]2(O)[C@H]3Cc4ccc(O)c5c4[C@@]2(CCN3CC2CC2)[C@H]1O5 ?
Found: 0.2

Lookup: Which Ki value is on record for O=C(N[C@H]1CC[C@@]2(O)[C@H]3Cc4ccc(O)c5c4[C@@]2(CCN3CC2CC2)[C@H]1O5)c1cnc[nH]1 ?
Found: 1.11

Lookup: // returns reported Ki for input O=C(CCc1cn[nH]c1)N[C@H]1CC[C@@]2(O)[C@H]3Cc4ccc(O)c5c4[C@@]2(CCN3CC2CC2)[C@H]1O5
Found: 1.09
